Just for reference, the NIST ThermoML archive (doi:10.1021/je060033f) is where these values come from.

Documented activity coefficient across a set of compounds
test: activity coefficient (dimensionless); of the first substance listed, at infinite dilution; xn = mol fraction of the nth substance listed; conditions: 323.15 K; 101 kPa; Liquid; Chromatography; x1 = 0
No unit in the answer, please; the number alone is enough.

>>> test_result("C1COCCO1 [1,4-dioxane] + C=CCn1cc[n+](C)c1.[Br-]")
1.59
>>> test_result("Cc1cccc(C)c1 [1,3-dimethylbenzene] + C[n+]1ccn(CCCB(O)O)c1.[Br-]")
48.1
>>> test_result("CCC(C)=O [butanone] + C=CC[n+]1ccn(CCCCCCCC)c1.[Br-]")
1.46

Task item: Value lookup for activity coefficient; key = CCO [ethanol] + C=CC[n+]1ccn(CCCCCCCC)c1.[Br-]
Reply: 0.27

Task item: Another: CCOCC [diethyl ether] + C=CC[n+]1ccn(CCCCCCCCCC)c1.[Br-]
Reply: 3.54

Task item: // repeat for Cc1ccccc1C [1,2-dimethylbenzene] + C=CC[n+]1ccn(CCCCCCCCCC)c1.[Br-] and report
Reply: 2.34

Task item: Would you mind doing CC#N [acetonitrile] + C=CC[n+]1ccn(CCCCCCCCCCCC)c1.[Br-] as well?
Reply: 0.86

Task item: And for C1COCCO1 [1,4-dioxane] + C[n+]1ccn(CCCB(O)O)c1.[Br-] ?
Reply: 11.2

Task item: Repeat with CO [methanol] + CCCCCCCCCCCC[n+]1ccn(CCCB(O)O)c1.[Br-]
Reply: 0.04
